System: biotinyl-Trp-oxazolone
Assay: self-aminoacylation, catalytic enhancement (BWO) (fold over background); higher = more active; k-Seq, kA / k0A0; sequences stand for … in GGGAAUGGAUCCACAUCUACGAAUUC…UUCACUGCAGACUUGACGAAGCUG
Fewer inactive variants are shown than the library holds.
QUANTITY_KIND: self-aminoacylation

INSERT INTO measurements (biosequence, quantity_kind, measured_value) VALUES
  ('CUACCUCAAACACUCGGUCUG [Fam1A.1 aminoacylation ribozyme variant]', 'self-aminoacylation', 1.93),
  ('AUUCAACUCGGUCAUCGGGUG [Fam2.2 aminoacylation ribozyme variant]', 'self-aminoacylation', 7.4),
  ('CCACCCGUCAAGCAAUCGGUC [Fam1B.1 aminoacylation ribozyme variant]', 'self-aminoacylation', 1.08),
  ('AGGCACCUAGGUCAUCGGGUG [Fam2.2 aminoacylation ribozyme variant]', 'self-aminoacylation', 4.1),
  ('CCACCCUUCAAGCAAUCGUUC [Fam1B.1 aminoacylation ribozyme variant]', 'self-aminoacylation', 0.742),
  ('CCACACAUCAAGCAAGCGGUC [Fam1B.1 aminoacylation ribozyme variant]', 'self-aminoacylation', 0.988),
  ('AUCCACCUAGGUCAUAGGGUG [Fam2.2 aminoacylation ribozyme variant]', 'self-aminoacylation', 2.2),
  ('CUACUUCGAACAAUCUGUCUG [Fam1A.1 aminoacylation ribozyme variant]', 'self-aminoacylation', 0.337),
  ('AUUUACCUGGGUCAUCGGGUG [Fam2.2 aminoacylation ribozyme variant]', 'self-aminoacylation', 17.2),
  ('CUACUUCAAACGAUCAGUCUG [Fam1A.1 aminoacylation ribozyme variant]', 'self-aminoacylation', 0.734),
  ('AUUCGCCUAGGACAUCGGGUG [Fam2.2 aminoacylation ribozyme variant]', 'self-aminoacylation', 3.67),
  ('ACUACCCUGGUCAUCGACUGA [Fam2.1 aminoacylation ribozyme variant]', 'self-aminoacylation', 0.51),
  ('AAGUUUGCUAAUUGUCGCAAG [Fam3.1 aminoacylation ribozyme variant]', 'self-aminoacylation', 1.06),
  ('CCGGACUUCAAGCAAUCGGUC [Fam1B.1 aminoacylation ribozyme variant]', 'self-aminoacylation', 26.3),
  ('CCACUUCAAACAAUCGGUUUG [Fam1A.1 aminoacylation ribozyme variant]', 'self-aminoacylation', 39.5),
  ('AAGUUUGCUAGAAGUCGCAAG [Fam3.1 aminoacylation ribozyme variant]', 'self-aminoacylation', 1.51),
  ('CCACGCUUCAAGCAAUCGGUG [Fam1B.1 aminoacylation ribozyme variant]', 'self-aminoacylation', 4.43),
  ('AAUCGCCUAGGUCAUCGGGUG [Fam2.2 aminoacylation ribozyme variant]', 'self-aminoacylation', 10);
